- Test system: CtBP / adenovirus E1A interaction (AlphaScreen)
- ASSAY_PROTOCOL: qHTS Assay for Inhibitors of the CtBP/E1A Interaction; note: % is set by controls: 0 for no effect and ±100 for the full control effect
- RECORDED_CONDITIONS: AlphaScreen GST-E1A/His-CtBP binding, 1536-well; hits give low values
In all, about 340,000 compounds went through this assay and about 1,700 (0.5%) were called active. Another 2% or so got no clear call; they are omitted. This excerpt belongs to a sample that is enriched for actives.
MEASUREMENT_TYPE: activity change (%)

INSERT INTO results (compound, measured_on, measurement_type, val) VALUES
  ('Cc1ccc(S(=O)(=O)N2C[C@H]3n4c(=O)ccc(=O)n4C[C@H](OC(=O)NC4CCCC4)[C@@]3(O)C2)cc1', 'CtBP / adenovirus E1A interaction (AlphaScreen)', 'activity change', 2.31),
  ('Cc1ccccc1S(=O)(=O)NC(=O)C1(C)CCN1C(=O)C1(c2ccc(Cl)cc2)CC1 (stereo not given)', 'CtBP / adenovirus E1A interaction (AlphaScreen)', 'activity change', 9.59),
  ('CC(=O)Nc1cccc(-c2ccnc3c2CC(C)(C(=O)NCc2ccco2)O3)c1 (stereo not given)', 'CtBP / adenovirus E1A interaction (AlphaScreen)', 'activity change', -10.5),
  ('NC(=O)N/N=C\c1cccs1', 'CtBP / adenovirus E1A interaction (AlphaScreen)', 'activity change', -12.4),
  ('S=c1[nH]nc(-c2cccs2)n1/N=C/c1cccs1', 'CtBP / adenovirus E1A interaction (AlphaScreen)', 'activity change', 0);

----------
- Test system: CtBP / adenovirus E1A interaction (AlphaScreen)
- ASSAY_PROTOCOL: qHTS Assay for Inhibitors of the CtBP/E1A Interaction; note: % is set by controls: 0 for no effect and ±100 for the full control effect
- RECORDED_CONDITIONS: AlphaScreen GST-E1A/His-CtBP binding, 1536-well; hits give low values
Out of some 340,000 compounds screened, about 1,700 (0.5%) were called active. Inconclusive results (about 2%) are left out. This is one part of a sample in which actives are shown more often than they occur.
MEASUREMENT_TYPE: activity change

INSERT INTO assay_data (compound, val) VALUES
  ('COc1ccc(CCn2c(=N)c(C(=O)NCc3ccco3)cc3c(=O)n4cccc(C)c4nc32)cc1', '-81.7% (active)'),
  ('Cc1cccn2c(=O)c3cc(C(=O)NCCN4CCOCC4)c(=N)n(Cc4cccnc4)c3nc12', '-25.6% (inactive)'),
  ('COc1ccc(Cl)cc1-c1cc(C(=O)Nc2cc(OC)c(OC)c(OC)c2)[nH]n1', '4% (inactive)'),
  ('O=C(CSc1cccc2cccnc12)N/N=C/c1cccnc1', '-93.9% (active)'),
  ('COc1ccccc1-c1cc2nc(NCc3cccc(Cl)c3)ccn2n1', '3.38% (inactive)'),
  ('CC1(C(=O)NS(=O)(=O)c2ccccc2)CCN1C(=O)Cc1ccc(-c2ccccc2)cc1 (stereo not drawn)', '1.02% (inactive)'),
  ('O=C(NCc1ccc(F)cc1)c1cc(C2CCCCN2C(=O)c2cccs2)on1 (stereo not drawn)', '4.5% (inactive)'),
  ('CCCC/C=C/c1cccc2nncn12', '2.58% (inactive)'),
  ('COc1cccc(C(NC(C)=O)c2nc(-c3cnc4ccccc4c3)cs2)c1 (stereo not drawn)', '-20.3% (inactive)'),
  ('COc1ccc(CCCNC(=O)C2Cc3c(-c4cccc(C(N)=O)c4)ccnc3O2)cc1 (stereo not drawn)', '-0.248% (inactive)'),
  ('CCOc1ccc(-n2c(O)c(/C=N/Nc3nnc(C)c(=O)[nH]3)c3ccccc3c2=O)cc1', '-92.9% (active)'),
  ('CN(Cc1cn(Cc2ccc(C(F)(F)F)cc2)nn1)C1CN(Cc2cn(Cc3ccc(C(F)(F)F)cc3)nn2)S(=O)(=O)C1 (stereo not drawn)', '3.64% (inactive)'),
  ('CCOC(=O)C=Cc1ccc(C(=O)OCC)[nH]1', '1.94% (inactive)'),
  ('O=c1ccc2c(-c3ccccc3S(=O)(=O)O)c3ccc(O)c(O)c3oc-2c1O', '-78.5% (active)'),
  ('CCN(CC)CCCN=Cc1c(O)n(-c2ccc(C)cc2)c(=O)c2ccccc12', '-3% (inactive)'),
  ('O=C(CSc1nc2ccccc2o1)N1CCN(c2ccc(Cl)cc2)CC1', '-0.51% (inactive)'),
  ('COc1ccc(Cc2nnc(N/N=C/c3ccccc3O)[nH]c2=O)cc1OC', '-73.4% (active)'),
  ('CCOC(=O)N/N=C/c1cccnc1', '25.9% (inactive)'),
  ('Cc1cc(Nc2ccc(C(=O)N3CCCCC3)cc2)c2cccc(C)c2n1', '1.83% (inactive)'),
  ('COc1ccc(/C=N/Nc2ncnc3sc4c(c23)CCCC4)cc1O', '-87.1% (active)'),
  ('COc1ccc(C(=O)N2CCCCC2c2cc(C(=O)Nc3ccc(F)c(Cl)c3)no2)cc1 (stereo not drawn)', '-5.81% (inactive)'),
  ('CCOc1cccc(/C=N/N2C(=O)CSC2=S)c1O', '-92.9% (active)'),
  ('CC(=O)Nc1cccc(-c2cc(NC=O)c3ncc(-c4ccc(F)c(Cl)c4)n3c2)c1', '6.58% (inactive)'),
  ('CCN(CC)C(=O)CSc1nc2ccccc2o1', '4.11% (inactive)'),
  ('CCOc1ccc(-n2c(O)c(/C=N/Nc3nc(C)cc(C)n3)c3ccccc3c2=O)cc1', '-6.77% (inactive)'),
  ('Cc1cc(Nc2ccc(N3CCOCC3)cc2)c2cccc(C)c2n1', '-16.1% (inactive)'),
  ('COc1cccc(-c2cc3nc(NCCOc4ccccc4Cl)n(C)c(=O)c3s2)c1', '3.25% (inactive)'),
  ('Cc1ccc(C(=O)NC(=S)NCCN2CCOCC2)cc1', '-5.38% (inactive)'),
  ('CCOc1cc(/C=N/n2cnnc2)c(Br)cc1O', '-6.92% (inactive)'),
  ('CCCCc1c(-c2ccc(Br)cc2)ncn1CCc1ccccc1OC', '-11.3% (inactive)'),
  ('Cc1ccc(-c2cnc(C(O)c3cccc(C)c3C)[nH]2)cc1 (stereo not drawn)', '-4.55% (inactive)'),
  ('Cc1ccc(Nc2cc(C)nc3c(C)ccc([N+](=O)[O-])c23)cc1', '-66.7% (active)'),
  ('COc1ccc(Cc2nnc(SC)[nH]c2=O)cc1', '0.0747% (inactive)'),
  ('Cc1nnc(N/N=C/C2CC=CCC2)[nH]c1=O (stereo not drawn)', '-19.9% (inactive)'),
  ('Cc1nnc(N/N=C/c2ccccn2)[nH]c1=O', '-90.3% (active)'),
  ('COC(=O)[C@@]12C[C@@H](CC(=O)NCCCCc3ccccc3)C(=O)N(Cc3ccccc3)C1=CCC(C)(C)C2', '-0.75% (inactive)'),
  ('COc1ccc(C(=O)NCC(=O)N/N=C/c2cccnc2)cc1', '11.7% (inactive)'),
  ('COc1ccc(-c2cnc3c(c2)C(=O)N([C@H](C)CO)C[C@@H](C)[C@H](CN(C)Cc2ccccc2)O3)cc1', '-12.8% (inactive)'),
  ('COCOCCn1cc(CN2CCS(=O)(=O)N(Cc3ccc(-c4ccc(OC)cc4)cc3)C(CC(C)C)C2=O)nn1 (stereo not drawn)', '-1.08% (inactive)'),
  ('Cc1noc(C)c1-c1ccc(C(=O)NCc2ccncc2)c2occc12', '-17.7% (inactive)'),
  ('COc1cccc(NC(=S)NCCCN2CCOCC2)c1', '5.66% (inactive)'),
  ('O=C(NCc1ccco1)c1cccn2c(=O)c3c4c(sc3nc12)CCCC4', '-12.2% (inactive)'),
  ('COc1ccc(NC(=O)CCCNC(=O)Cn2cnc3sc4c(c3c2=O)CCCC4)cc1OC', '20.4% (inactive)');
